# Test system: BDF1 mice, B16 melanoma s.c., survival/tumor T/C
# run-description: NCI In Vivo Anticancer Drug Screen. Data for tumor model B16 Melanoma (subcutaneous) in B6D2F1 (BDF1) mice
# assay-context: endpoint: median survival time; dose: 4.0 mg/kg/injection; schedule: Q01DX009 (ip); vehicle: saline
Inconclusive results are not listed. Rule for the calls: active = survival T/C of 150% or more; inactive = T/C below 125% in these data.
Response enum: active, inactive

Example entries and their recorded answers appear below.
* Cc1c(N)nc([C@H](CC(N)=O)NC[C@H](N)C(N)=O)nc1C(=O)N[C@H](C(=O)N[C@H](C)[C@@H](O)CC(=O)N[C@H](C(=O)NC(O[C@@H]1O[C@@H](C)[C@@H](N)[C@@H](O)[C@H]1O)C(O)c1nc(-c2nc(C(=O)NCCCCN)cs2)cs1)[C@@H](C)O)[C@@H](O[C@@H]1O[C@@H](CO)[C@@H](O)[C@H](O)[C@@H]1O[C@H]1O[C@H](CO)[C@@H](O)[C@H](OC(N)=O)[C@@H]1O)c1c[nH]cn1 (some centres not stated) | active
* N[C@@H](Cc1ccc(N(CCCl)CCCl)cc1)C(=O)O | inactive
* COc1cccc2c1C(=O)c1c(O)c3c(c(O)c1C2=O)C[C@@](O)(/C(C)=N/NC(=O)c1ccccc1)C[C@@H]3OC1CC(N)C(O)C(C)O1 (some centres not stated) | inactive
* N[C@H](C(=O)O)[C@@H]1CC(Cl)=NO1 | inactive
* FC(F)(F)c1nc2nc(Cl)c(Cl)nc2[nH]1 | inactive
* Cc1c(N)nc(C(CC(N)=O)NCC(N)C(N)=O)nc1C(=O)NC(C(=O)NC(C)C(O)CC(=O)NC(C(=O)NC(OC1OC(C)C(N)C(O)C1O)C(O)c1nc(-c2nc(C(=O)NCCCC(N)CC(=O)NCCCNCCCCN)cs2)cs1)C(C)O)C(OC1OC(CO)C(O)C(O)C1OC1OC(CO)C(O)C(OC(N)=O)C1O)c1cnc[nH]1 (configuration not stated) | active

Now turn to the next compound.
What did this assay record as the result for Nc1nc([Se])c2ncn(C3OC(CO)C(O)C3O)c2n1 (configuration not stated) ?
inactive

----------
I'd be grateful if you could share measured T/C for these entries.
# Test system: BDF1 mice, B16 melanoma s.c., survival/tumor T/C
# run-description: NCI In Vivo Anticancer Drug Screen. Data for tumor model B16 Melanoma (subcutaneous) in B6D2F1 (BDF1) mice
# assay-context: endpoint: median survival time; dose: 0.5 mg/kg/injection; schedule: Q01DX009 (ip); vehicle: saline with Tween-80; higher = longer survival
Results filed as inconclusive are left out.

- C1CN1c1nc(N2CC2)nc(N2CC2)n1: 110 % of control
- CN(Cc1cnc2nc(N)nc(N)c2n1)c1ccc(C(=O)N[C@@H](CCC(=O)O)C(=O)O)cc1: 100 % of control

Below are 4 compounds. Give each one its T/C.
1. O=c1[nH]cc(N(CCCl)CCCl)c(=O)[nH]1
2. O=C1c2c(O)ccc(O)c2C(=O)c2c(NCCNCCO)ccc(NCCNCCO)c21
3. COC(=O)[C@@]12OC[C@]34[C@H]([C@@H](O)[C@@H]1O)[C@@]1(C)CC(=O)C(O)=C(C)[C@@H]1C[C@H]3OC(=O)[C@H](OC(=O)/C=C(\C)C(C)C)[C@@H]24
4. CCCCCCCC(=O)OCC(=O)[C@]1(O)Cc2c(O)c3c(c(O)c2[C@@H](OC2CC(N)C(O)C(C)O2)C1)C(=O)c1c(OC)cccc1C3=O (some centres not stated)

1: 124 % of control; 2: 120 % of control; 3: 96 % of control; 4: 98 % of control

Entry COc1cccc2c1C(=O)c1c(O)c3c(c(O)c1C2=O)C[C@@](O)(C(=O)COC(=O)Cc1ccccc1)C[C@@H]3OC1CC(N)C(O)C(C)O1 (some centres not stated) — recorded T/C = 86 % of control

----------
# Test system: BDF1 mice, B16 melanoma s.c., survival/tumor T/C
# run-description: NCI In Vivo Anticancer Drug Screen. Data for tumor model B16 Melanoma (subcutaneous) in B6D2F1 (BDF1) mice
# assay-context: endpoint: median survival time; dose: 200.0 mg/kg/injection; schedule: Q04DX003 (ip); vehicle: saline; higher = longer survival
Inconclusive results are not listed.
I'd be grateful if you could share measured T/C for these entries.

A selection of reference data follows.
* O=[N+]([O-])O.[Ga] | 99 % of control
* C[C@@H](CN1CC(=O)NC(=O)C1)N1CC(=O)NC(=O)C1 | 115 % of control
* CC(CN1CC(=O)NC(=O)C1)N1CC(=O)NC(=O)C1 (stereo not given) | 105 % of control
* C[C@H](CN1CC(=O)NC(=O)C1)N1CC(=O)NC(=O)C1 | 122 % of control

Okay, now this molecule:
Summary: O=c1[nH]c(=O)n(C2CC(O)C(CO)O2)cc1F (stereo not given) , BDF1 mice, B16 melanoma s.c., survival/tumor T/C, T/C = 112 % of control

----------
I'd be grateful if you could share measured T/C for these entries.
# Tested on: BDF1 mice, B16 melanoma s.c., survival/tumor T/C
# run-description: NCI In Vivo Anticancer Drug Screen. Data for tumor model B16 Melanoma (subcutaneous) in B6D2F1 (BDF1) mice
# assay-context: endpoint: median survival time; dose: 40.0 mg/kg/injection; schedule: Q01DX009 (ip); vehicle: Klucel (hydroxypropylcellulose) (HPC); higher = longer survival
Inconclusive results are not listed.

A selection of reference data follows.
• OC(CBr)C(O)C(O)C(O)CBr (stereo unspecified) = 106 % of control
• NC(C/[N+]([O-])=N/O)C(=O)O (stereo unspecified) = 103 % of control
• CCOC(=O)CNC(=O)CCCCSc1ncnc2nc[nH]c12 = 111 % of control

Below are 3 compounds. Give each one its T/C.
1. CN(C)c1nc(N(C)C)nc(N(C)C)n1
2. CNNCc1ccc(C(=O)NC(C)C)cc1
3. CSCCC(N)C(=O)O (stereo unspecified)

1. 118 % of control
2. 102 % of control
3. 108 % of control

----------
# System: BDF1 mice, B16 melanoma s.c., survival/tumor T/C
# run-description: NCI In Vivo Anticancer Drug Screen. Data for tumor model B16 Melanoma (subcutaneous) in B6D2F1 (BDF1) mice
# assay-context: endpoint: median survival time; dose: 8.0 mg/kg/injection; schedule: Q02DX009 (ip); vehicle: saline
Inconclusive results are not listed. How the source made its calls: active means survival T/C of 150% or more; inactive means T/C below 125% in these data.
Response enum: class 1 for active, class 0 for inactive

Example entries and their recorded answers appear below.
• C[CH2][Ge]1([CH2]C)[CH2]CC2(CCN(CCCN(C)C)C2)C[CH2]1 = class 0
• O=C(NP(=O)(N1CC1)N1CC1)c1cc(I)ccc1I = class 1
• S=P(N1CC1)(N1CC1)N1CC1 = class 0

What did this assay record as the result for `O=C1c2ccccc2C(=O)c2c(NCCNCCO)ccc(NCCNCCO)c21` ?
class 0

----------
# Test system: BDF1 mice, B16 melanoma s.c., survival/tumor T/C
# run-description: NCI In Vivo Anticancer Drug Screen. Data for tumor model B16 Melanoma (subcutaneous) in B6D2F1 (BDF1) mice
# assay-context: endpoint: median survival time; dose: 2.5 mg/kg/injection; schedule: Q01DX009 (ip); vehicle: saline; higher = longer survival
Inconclusive results are not listed.
I'd be grateful if you could share measured T/C for these entries.

- NC(CS/C(Cl)=C/Cl)C(=O)O (centres undefined): 95 % of control
- CC1(C)OCC(CO)(Nc2nc(N3CC3)nc(N3CC3)n2)CO1: 104 % of control
- Cn1c(CCCC(=O)O)nc2cc(N(CCCl)CCCl)ccc21: 120 % of control

Okay, now this compound:
Entry `CN[C@H]1CCc2cc(OC)c(OC)c(OC)c2-c2ccc(OC)c(=O)cc21` — recorded T/C = 95 % of control

----------
# Test system: BDF1 mice, B16 melanoma s.c., survival/tumor T/C
# run-description: NCI In Vivo Anticancer Drug Screen. Data for tumor model B16 Melanoma (subcutaneous) in B6D2F1 (BDF1) mice
# assay-context: endpoint: median survival time; dose: 8.0 mg/kg/injection; schedule: Q01DX009 (ip); vehicle: Klucel (hydroxypropylcellulose) (HPC); higher = longer survival
Records with an inconclusive call do not appear.
recorded-metric: T/C

* O=C1c2ccccc2C(=O)c2c(NCCNCCO)ccc(NCCNCCO)c21 | 104 % of control

Below are 4 compounds. Give each one its T/C.
1. FC(F)c1nc2nc(Cl)c(Cl)nc2[nH]1
2. COC12C(COC(N)=O)C3=C(C(=O)C(C)=C(N)C3=O)N1CC1C2N1C (configuration not stated)
3. O=C(O)CCCc1ccc(N(CCCl)CCCl)cc1
4. ClC1=NC(Cl)C(Cl)=N/C1=N\c1ncn[nH]1 (configuration not stated)

["97 % of control", "109 % of control", "102 % of control", "113 % of control"]

Below are 2 compounds. Give each one its T/C.
1. Cn1ncc2c(N)ncnc21
2. CC(CN1CC(=O)NC(=O)C1)N1CC(=O)NC(=O)C1 (configuration not stated)

["115 % of control", "113 % of control"]
